# test: activators of NF-kB expression in neurons, primary screen, cell-based, HTS (AID 1239)
# recorded.conditions: human neuronal cells, NF-kB reporter expression; at 12.5 µM
Screen size: about 190,000 compounds; about 3,100 (1.6%) were called active. Cut-off read from the data, not from the text of the source: active = fold change above about 3.3; inconclusive = no clear call, values can overlap the other calls; inactive = below that. The list comes from a sample in which actives are over-represented; it also holds close analogues and randomly drawn compounds.
Possible outcomes: class 1 for active, class 0 for inactive

| molecule | class.assignment |
| --- | --- |
| CCOC(=O)c1[nH]ncc1CN1CCCC(C(=O)c2ccc(OC)cc2C)C1 (stereo unspecified) | class 0 |
| C1=C(CCNc2ncnc3c2cnn3-c2ccccc2)CCCC1 | class 1 |
| COc1ccc(C(=O)NCC(=O)N/N=C/c2ccc([N+](=O)[O-])s2)cc1OC | class 0 |
| c1ccc(-n2ncc3c(N4CCCC4)ncnc32)cc1 | class 1 |
| COc1ccc(-n2ncc3c(N4CCCc5ccccc54)ncnc32)cc1 | class 0 |
| OCCC1CN(Cc2ccc3nsnc3c2)CCN1C1CCCC1 (stereo unspecified) | class 1 |

---

# reported fold change; entries follow
# test: activators of NF-kB expression in neurons, primary screen, cell-based, HTS (AID 1239)
# recorded.conditions: human neuronal cells, NF-kB reporter expression; at 12.5 µM; active compounds read high
About 3,100 (1.6%) of roughly 190,000 compounds were called active. Shown is part of a subset that was picked to be rich in actives.

| molecule | fold change |
| --- | --- |
| O=C(NCCC1=CCCCC1)c1ccc(Cl)c([N+](=O)[O-])c1 | 1.68 |
| Brc1ccc(C2CC(c3ccccc3)=Nc3ccccc3N2)cc1 (stereo not drawn) | 3.44 |
| COCCNC(=O)/C(C#N)=C/c1nc(N(C)C)n(-c2ccc(F)cc2)c1Cl | 1.11 |
| O=C(Nc1nc2ccc(S(=O)(=O)N3CCCC3)cc2s1)C1CCCO1 (stereo not drawn) | 0.92 |
| c1ccc(C2=Nc3cccc4cccc(c34)N2)cc1 | 1.21 |
| O=c1[nH]n(-c2ccc([N+](=O)[O-])cc2)c(=O)c2ccccc12 | 1 |
| Cc1cc(C)c2nc(NC(=O)C3CCCO3)sc2c1 (stereo not drawn) | 6.22 |
| CNC(=S)N1N=C(c2ccccc2)CC1c1ccc(Br)cc1 (stereo not drawn) | 1.3 |

---

# test: activators of NF-kB expression in neurons, primary screen, cell-based, HTS (AID 1239)
# recorded.conditions: human neuronal cells, NF-kB reporter expression; at 12.5 µM
The whole screen tested about 190,000 compounds, of which about 3,100 (1.6%) were called active. Rule as the data show it: active = fold change above about 3.3; inconclusive = no clear call, values can overlap the other calls; inactive = below that. Shown is part of a subset that was picked to be rich in actives.
Possible outcomes: 1 (yes) for active, 0 (no) for inactive

| molecule | class.assignment |
| --- | --- |
| COc1cc(/C=N/NC(=O)c2cc(C)n(-c3ccc(F)cc3)c2C)cc(OC)c1O | 0 (no) |
| O=C(Nc1ccc2sc3ccccc3c(=O)c2c1)c1ccccc1Cl | 1 (yes) |
| CC(C)CCC(C)NC(=O)c1ccc2nccnc2c1 (configuration not stated) | 0 (no) |
| CCOC(=O)CCCNC(=O)COC(=O)/C=C/c1ccc2c(c1)OCO2 | 0 (no) |
| COc1cc(C(=O)NCc2ccc(-n3cccc3)cc2)cc(OC)c1OC | 0 (no) |
| COc1cc(NC(=S)NCc2ccc(S(N)(=O)=O)cc2)cc(OC)c1 | 0 (no) |
| CCOc1cccc(/C=C/c2ccc3ccccc3n2)c1OC(C)=O | 1 (yes) |
| CCn1nnnc1SCC(=O)c1ccc(C)cc1C | 1 (yes) |
| CCn1cc(CN2CCCC(CNS(=O)(=O)Cc3ccccc3)C2)cn1 (configuration not stated) | 0 (no) |
| O=c1oc2c(CN3CCCCC3)c(O)ccc2c2c1CCCCC2 | 0 (no) |
| COc1ccc(C(=O)CSc2nnnn2C)c(OC)c1 | 0 (no) |
| CC(C)(C)C1CCC(C(=O)Nc2cccnc2)CC1 (configuration not stated) | 0 (no) |
| CC1CN(CCCOc2ccccc2-c2ccccc2)CC(C)O1 (configuration not stated) | 0 (no) |
| CCN(CC)C(=O)C(=O)c1cn(CC(=O)NCc2ccc3c(c2)OCO3)c2ccccc12 | 0 (no) |
| N#CC1=C(N)Oc2[nH]c(=S)[nH]c(=O)c2C12C(=O)Nc1ccccc12 (configuration not stated) | 0 (no) |
| COc1cc2c(cc1OC)CN(C(=O)c1ccc(S(=O)(=O)N3CCCCCC3)cc1)CC2 | 0 (no) |
| O=C1CN(C(=O)CN2C(=O)NC3(CCCCC3)C2=O)c2ccccc2N1 | 0 (no) |
